# Test system: HCT-116 colon
# measurement.description: NCI-60 one-dose screen, 48 h (100 = growth as untreated, 0 = no growth, -100 = all killed)
# test.context: 10 µM unless noted
Compounds without any hit were thinned out: in the full panel of roughly 83,000, 20% have a hit.
endpoint: growth (%)
I only need the number, in %, no unit after it.

Sample "COC(=O)CC/C(C)=N\Nc1ccc([N+](=O)[O-])cc1" — what was its growth?
54.1

Try this molecule next: COC1=CC(c2ccc[nH]2)=N/C1=C\c1[nH]c(C)c(CCCn2cc(CCCCCCCCC[C@@H]3Cc4cc(O)ccc4C4CC[C@]5(C)[C@@H](O)CC[C@H]5C43)nn2)c1C (stereo partly drawn)
37.3

Thanks! And CC(Br)C(Br)c1cc2c(cc1Br)OCO2 (stereo not drawn) ?
88.5

Can you handle "N#Cc1ncc(-c2ccc(F)c(F)c2F)c(NC2CCCCCC2)n1" next?
72.6

Proceed to COc1ccc2c(c1)C=CC(C#N)N2C(=O)c1ccccc1 (stereo not drawn)
8.13

Consider next the molecule "CNC(=O)c1cc(Oc2ccc3c(c2)sc2nc(-c4ccc(Cl)cc4)cn23)ccn1" in the same way.
80.9

Same again, this time with "Cc1nc2sccn2c1-c1csc(Nc2ccccc2Cl)n1"
27.8

Param item: "Cn1cc(C=O)c2ccccc21"
102

Item: "COc1cccc2nc(Nc3ccc(NC(=O)c4ccc5ncccc5c4)cc3)ccc12"
84.5

Now consider "COc1cc(CNC(=O)CCSc2nc3ccccc3c(=O)n2Cc2cc(OC)c(OC)c(OC)c2)cc(OC)c1OC" and answer again.
17

Likewise for "O=C(CN1CCOCC1)Nc1ccc(-c2nc3ccccc3s2)cc1" ?
96.1

Proceed to "O=C(Nc1ccc(Br)c(Cl)c1)c1cc(F)ccc1O"
-21.8

Continue with "CN(C)c1ncc(-c2ccc(C(F)(F)F)cc2)c(NC2CCCCCC2)n1"
44.1

* * *

# Tested on: CCRF-CEM leukemia
# measurement.description: NCI-60 one-dose screen, 48 h
# test.context: 10 µM unless noted
This is part of a sample that, as a whole, favours compounds with a hit. Of some 83,000 tested, about 20% had one in any assay. Calls of active or inactive are those of the source. Rule for the calls: active = growth percent below 10; inactive = the rest.
Hi! Could you answer with just one of these? active, inactive

Query: recorded result category for "Cc1cc(-c2ccccc2)c(C)n1Cc1ccc(Cl)cc1" in this test
inactive

One more compound: "CCNCc1ccncc1"
inactive

And "COc1cc(C(=O)/C=C/c2cc(C(=O)c3cc(OC)c(OC)c(OC)c3)ccc2OC)ccc1N" ?
active

Record: "O=C1CCC(=O)N1Cc1ccccc1"
inactive

Okay, and "COc1ccc(/C=C2\C(=O)N(C(=O)c3csc(NC(C)=O)n3)N=C2C)cc1" ?
inactive

Another compound to check: "Cc1nc(Nc2cccnc2)sc1C(=O)/C=C/c1ccc(Cl)cc1"
active

Same thing, different compound: "COc1cc(/C=C/C(=O)c2ccccc2O)ccc1OCCCOc1cc2c(cc1OC)C(=O)N1CCC[C@H]1C=N2"
active

// query: "O=S(=O)(NCCCNc1cc(-c2cn(-c3ccccc3)nc2-c2cccc(O)c2)ccn1)c1cccc2ccccc12"
inactive

Same question, "CCO/C=N/NC(=O)c1ccncc1" this time
inactive

// same read-out, input: "COc1ccc(/C=C/C(=O)c2ccc(NC(=O)CN3CCN(c4cc5c(cc4F)c(=O)c(C(=O)O)cn5C4CC4)CC3)cc2)cc1"
inactive

Same question, "CCCCNc1nnc(-c2cc(-c3cc4ccccc4o3)nn2-c2ccccc2)o1" this time
inactive

# iterate: "O=C(N/N=C/c1c(Cl)cccc1Cl)c1ccccc1Nc1ccnc(C(F)(F)F)c1"
inactive

Moving on to "Cc1ccnc2nc(C(=O)OCC(=O)Nc3ccc(-c4ccccc4)cc3)nn12"
inactive

Another: Clc1ccc2c(c1)NC1(CCSc3ccccc31)n1nccc1-2 (configuration not stated)
inactive

Same for "O=C(/C=C/c1ccccc1)n1c(-c2ccc(Cl)cc2)nc2ccccc21"
active

Also need COc1ccc(C2SCC(=O)N2NC(=O)c2ccc(NC(=O)c3ccccn3)cc2)cc1OC (configuration not stated) , thanks.
inactive

Same question for CC(Cc1nnc(SCC(=O)Nc2ccc(I)cc2)n1N)c1ccccc1 (configuration not stated) please.
inactive

* * *

# Test system: A549/ATCC NSCLC
# measurement.description: NCI-60 one-dose screen, 48 h (100 = growth as untreated, 0 = no growth, -100 = all killed)
# test.context: 10 µM unless noted
The panel holds about 83,000 compounds, 20% with a hit somewhere; the sample as a whole holds those more often.
What growth was measured for each of the following?
Please give a number only; it is taken to be in %.

Name the recorded growth for "CC(=O)n1cc([C@H]2CC[C@H](c3cn(C(C)=O)c4ccccc34)c3c2[nH]c2ccccc32)c2ccccc21" .
70

What about this molecule? "CCO/C=N/NC(=O)c1ccncc1"
106

What about "COc1ccc(-c2nnc(COc3ccc(NC(=O)Nc4ccc(Cl)c(C(F)(F)F)c4)cc3F)o2)cc1" ?
11.1

Please answer likewise for "COc1ncc(-c2ccc3ncnc(Nc4cccc(Cl)c4)c3c2)cc1NS(=O)(=O)CCN1CCOCC1"
-4.57

# repeat for "CC(=O)Nc1nc(C(=O)N2N=C(C)/C(=C/c3cccs3)C2=O)cs1"
101

Now the same for "O=C(CCCn1c2c(sc3ccccc32)c(=O)n2nnc(-c3ccccc3)c12)NCCc1cnc[nH]1"
-75.3

Repeat with "COC(=O)CCCCCN=Cc1c(O)c(O)c(C(C)C)c2cc(C)c(-c3c(C)cc4c(C(C)C)c(O)c(O)c(C=NCCCCCC(=O)OC)c4c3O)c(O)c12"
20.8

Request: O=C(COc1ccccc1)N1N=C(c2ccc(Cl)cc2)CC1c1c[nH]c2ccccc12 (stereo not drawn)
58.4

* * *

Consider the following compounds; for each one, report its growth.
# Test system: SN12C renal
# measurement.description: NCI-60 one-dose screen, 48 h (100 = growth as untreated, 0 = no growth, -100 = all killed)
# test.context: 10 µM unless noted
Compounds without any hit were thinned out: in the full panel of roughly 83,000, 20% have a hit.
# number only, unit % dropped from output

What growth value was documented for this compound, "COc1ccc(/C(=N/O)c2cc(F)c(F)c(OC)c2F)cc1O" ?
45.7

Please answer likewise for "COc1cc(-c2n[nH]nc2-c2ccc3c(c2)OCCO3)cc(OC)c1OC"
31

And "COc1ccc(N=C2NN=C(c3ccc(F)cc3)CS2)cc1OC" ?
98.1

What about this compound? "Cc1ccnc2nc(C(=O)OCC(=O)Nc3ccc(-c4ccccc4)cc3)nn12"
102

And what about the compound "Cn1c(-c2nonc2NC(=O)c2ccc(F)cc2)nc2ccccc21" ?
102

Subsequent entry: "O=c1c2cccc3c(Nc4ccc(F)cc4)ccc(c32)c2nc3ccccc3n12"
87.8

Queued: CN(C)C1CCC(NC2=CC(=O)C=CC2=O)CC1 (stereo not drawn)
115

Now the same for "O=[N+]([O-])c1cccc(-c2cc(-c3cc(Br)ccc3O)[nH]n2)c1"
24.8

Consider next the compound "NCCSC(c1ccccc1)(c1ccccc1)c1ccccc1" in the same way.
23.7

Next compound: "COc1cc(Cn2c(SCC(=O)Nc3cc(OC)c(OC)c(OC)c3)nc3ccccc3c2=O)cc(OC)c1OC"
82

// same read-out, input: "COc1ccc(/C=C\c2cc(OC)c(OC)c(OC)c2)c(NS(=O)(=O)c2ccc(C(C)(C)C)cc2)c1O"
29.5

Here is the next compound: "COc1ccc(-c2nnc(COc3ccc(NS(=O)(=O)c4ccc(OC)cc4)cc3F)o2)cc1"
89.8

Then "c1ccc([P+](CCC[P+](c2ccccc2)(c2ccccc2)c2ccccc2)(c2ccccc2)c2ccccc2)cc1" ?
78

Further, for "O=C1c2ccccc2C(=O)c2c(N=Nc3sc(=O)[nH]c3S)cccc21" ?
100

Subsequent entry: "COc1cccc(/C=C/C(=O)c2sc(Nc3ccc(O)cc3)nc2C)c1"
86.2

Continue with "COC(=O)c1ccc(C)cc1"
107

What do you have for O=C1NC(Cc2c[nH]c3ccccc23)C(=O)N1Cc1ccc(Cl)cc1 (stereo not drawn) ?
99.7

Here is the next compound: CC(=O)C1CCC(C)=CC1=O (stereo not drawn)
99

* * *

# System: TK-10 renal
# measurement.description: NCI-60 one-dose screen, 48 h (100 = growth as untreated, 0 = no growth, -100 = all killed)
# test.context: 10 µM unless noted
Compounds without any hit were thinned out: in the full panel of roughly 83,000, 20% have a hit. Calls of active or inactive are those of the source. How the source made its calls: active means growth percent below 10; inactive means the rest.
Can you tell me growth for the items I'm about to list?

I'd like to know its growth. The molecule in question is CCCC(C(=O)OCC)C(C)OC(=O)OCC (stereo unspecified)
98% (inactive)

Could you do the same for CCN(CC)CCCC(C)N=c1cc(Nc2cc(=NC(C)CCCN(CC)CC)c3cc(OC)ccc3o2)oc2ccc(OC)cc12 (stereo unspecified) , please?
-50.2% (active)

Now the molecule "Cc1cc(C)c(S(=O)(=O)N2CCN(c3cc4c(cc3F)c(=O)c(C(=O)O)cn4C3CC3)CC2)c(C)c1"
86.5% (inactive)

Same question, "COc1ccc(NC(=O)CSc2nc3ccccc3c(=O)n2Cc2cc(OC)c(OC)c(OC)c2)cc1" this time
96.5% (inactive)

Moving on to the next molecule: "O=c1[nH]c(-c2cn(-c3ccc(Cl)cc3)nn2)nc2ccccc12"
80.6% (inactive)

Check Cc1ccc(S(=O)(=O)OC2COCOC2C(OS(=O)(=O)c2ccc(C)cc2)C2OCOCC2OS(=O)(=O)c2ccc(C)cc2)cc1 (stereo unspecified) too.
101% (inactive)

Now try "Cc1oc2nc[nH]c(=O)c2c1C(=O)/C=C/c1ccc(Cl)cc1Cl" .
123% (inactive)

Try "O=C(CN1CCN(c2cc3c(cc2F)c(=O)c(C(=O)O)cn3C2CC2)CC1)Nc1ccc(C(=O)/C=C/c2ccc(Cl)cc2)cc1" next.
111% (inactive)

Would you kindly repeat that for "Cc1cccc(NC(=O)c2sc3nc4c(cc3c2N)CCC4)c1C" ?
35% (inactive)

And for "COc1cc(NC(=O)CCl)ccc(=O)c1" ?
35.4% (inactive)

Try this molecule too: O=[N+]([O-])c1cc(S(=O)(=O)OCC2CO2)ccc1Cl (stereo unspecified)
114% (inactive)

Thanks! And "CCC(=O)Nc1ccccc1C#C/C=C\C#Cc1ccccc1SC" ?
71.5% (inactive)

One more molecule: "O=C(/C=C/CN1CCOCC1)Nc1cc2c(Nc3cccc(Cl)c3F)ncnc2cc1OCCOC(F)F"
57.3% (inactive)

Same question for "C=CCOc1cccc(/C=C/C(=O)c2sc(Nc3cccnc3)nc2C)c1" please.
113% (inactive)

Please answer likewise for CC1Cc2c(N(C)C)ncnc2N(C)c2ccc(Cl)cc21 (stereo unspecified)
31.8% (inactive)

Further, for "CCOC(=O)/C=C\C(=O)NC(N)=O" ?
97.8% (inactive)

Param item: "Oc1ccc(Cl)cc1-c1cc(-c2ccc(Cl)cc2)n[nH]1"
102% (inactive)

Can you handle "COc1ccc(/C(=N/O)c2cc(F)c(F)c(OC)c2F)cc1O" next?
88.7% (inactive)

// query: COc1ccc(C2CC(c3cccs3)=NN2c2ccc(S(=O)(=O)NC(=O)Nc3ccc(C)cc3)cc2)cc1 (stereo unspecified)
96.8% (inactive)

Here is the next molecule: C#CCN1C(=O)/C(=c2\sc3n(c2=O)NC2C(N=3)N(CC)C(=O)N2CC)c2ccccc21 (stereo unspecified)
96.5% (inactive)

Proceed to Clc1ccc2c(c1)NC1(CCSc3ccccc31)n1nccc1-2 (stereo unspecified)
96.7% (inactive)

Do the same for "Cc1c(C(=O)NCc2ccccc2)[n+](=O)c2cc(F)ccc2n1[O-]" please
138% (inactive)

Record: "O=S(=O)(NCCCNc1nccc(-c2c(-c3ccccc3)nc3sccn23)n1)c1ccc(F)cc1"
72.7% (inactive)

And what about the molecule "Nc1c(C(=O)Nc2ccccc2)sc2nc3c(cc12)CCC3" ?
96% (inactive)

What about this molecule? "CCN(Cc1ccc(CN(CC)C(=O)C(Cl)(Cl)Cl)cc1)C(=O)C(Cl)(Cl)Cl"
96.1% (inactive)

Let us now turn to "COc1ccc2c(c1)NC(=O)CN2c1nc(C)nc2ccccc12"
14.8% (inactive)

The measured values listed here are drawn from PubChem BioAssay (NCI).
